Where do these numbers come from? They come from paper PMC8991007.

Below: a set of entries, each annotated with reported MIC.
System: C. albicans
Experiment: Minimum inhibitory concentration broth double-dilution assay
Assay type: cell-based, Candida albicans
Settings: #4 C. albicans T-2068 (DP-C42); 24 h, 30 °C
*1 amine or outer side, *2 acyl side, *3 side chain or, on linkers, in order; H or OH if unused. Where a SMILES comes first, the peptide text is derived from it. Bridges are numbered along the chain shown (N, C = ends). [ ]: non-standard residue; d: D form. The star is where a group is joined. hTyr(3S-OH,4S-OH,3'-OSO3H) = N[C@H](C(=O)O)[C@H](O)[C@@H](O)c1ccc(O)c(OS(=O)(=O)O)c1; pTerphenylCO(4''-OnC5H11) = CCCCCOc1ccc(-c2ccc(-c3ccc(C(=O)*)cc3)cc2)cc1; Orn(4R-OH,5R-OH) = O=C([C@H](C[C@@H](O)[C@@H](O)N[*:3])N[*:1])[*:2]; hTyr(3S-OH,4S-OH) = N[C@H](C(=O)O)[C@H](O)[C@@H](O)c1ccc(O)cc1; Pro(3S-OH,4S-Me) = C[C@H]1CN[C@H](C(=O)O)[C@H]1O; X1 = CCCCCOc1ccc(-c2cc(-c3ccc(C(=O)*)cc3)no2)cc1; Gln(3R-OH) = NC(=O)C[C@@H](O)[C@H](N)C(=O)O; Hyp = O=C(O)[C@@H]1C[C@@H](O)CN1

{"columns": ["compound", "unitsLabel", "MIC"],
 "data": [
  ["CCCCCOc1ccc(-c2ccc(-c3ccc(C(=O)N[C@H]4C[C@@H](O)[C@@H](O)NC(=O)[C@@H]5[C@@H](O)[C@@H](C)CN5C(=O)[C@H]([C@@H](C)O)NC(=O)[C@H]([C@H](O)[C@@H](O)c5ccc(O)cc5)NC(=O)[C@@H]5C[C@@H](O)CN5C(=O)[C@H]([C@@H](C)O)NC4=O)cc3)cc2)cc1 [ANF, anidulafungin] ({pTerphenylCO(4''-OnC5H11)}-[Orn(4R-OH,5R-OH)]T[Hyp][hTyr(3S-OH,4S-OH)]T[Pro(3S-OH,4S-Me)]; lactam 1-C)", "µg/mL", 2],
  ["CC[C@H](C)C[C@H](C)CCCCCCCCC(=O)N[C@H]1C[C@@H](O)[C@@H](NCCN)NC(=O)[C@@H]2[C@@H](O)CCN2C(=O)[C@H]([C@H](O)CCN)NC(=O)[C@H]([C@H](O)[C@@H](O)c2ccc(O)cc2)NC(=O)[C@@H]2C[C@@H](O)CN2C(=O)[C@H]([C@@H](C)O)NC1=O", "µg/mL", 32],
  ["CCCCCOc1ccc(-c2cc(-c3ccc(C(=O)N[C@H]4C[C@@H](O)[C@@H](O)NC(=O)[C@@H]5[C@@H](O)[C@@H](C)CN5C(=O)[C@H]([C@H](O)CC(N)=O)NC(=O)[C@H]([C@H](O)[C@@H](O)c5ccc(O)c(OS(=O)(=O)O)c5)NC(=O)[C@@H]5C[C@@H](O)CN5C(=O)[C@H]([C@@H](C)O)NC4=O)cc3)no2)cc1 [MCF, micafungin] (X1-[Orn(4R-OH,5R-OH)]T[Hyp][hTyr(3S-OH,4S-OH,3'-OSO3H)][Gln(3R-OH)][Pro(3S-OH,4S-Me)]; lactam 1-C)", "µg/mL", 4]
]}

---

Tested on: C. glabrata
Test: Minimum inhibitory concentration broth double-dilution assay
Type: cell-based, Candida glabrata
Settings: #9 C. glabrata EF1620; 24 h, 30 °C
*1 amine or outer side, *2 acyl side, *3 side chain or, on linkers, in order; H or OH if unused. Where a SMILES comes first, the peptide text is derived from it. Bridges are numbered along the chain shown (N, C = ends). [ ]: non-standard residue; d: D form. The star is where a group is joined. hTyr(3S-OH,4S-OH,3'-OSO3H) = N[C@H](C(=O)O)[C@H](O)[C@@H](O)c1ccc(O)c(OS(=O)(=O)O)c1; pTerphenylCO(4''-OnC5H11) = CCCCCOc1ccc(-c2ccc(-c3ccc(C(=O)*)cc3)cc2)cc1; Orn(4R-OH,5R-OH) = O=C([C@H](C[C@@H](O)[C@@H](O)N[*:3])N[*:1])[*:2]; hTyr(3S-OH,4S-OH) = N[C@H](C(=O)O)[C@H](O)[C@@H](O)c1ccc(O)cc1; Pro(3S-OH,4S-Me) = C[C@H]1CN[C@H](C(=O)O)[C@H]1O; X1 = CCCCCOc1ccc(-c2cc(-c3ccc(C(=O)*)cc3)no2)cc1; hTyr(3R-OH) = N[C@H](C(=O)O)[C@H](O)Cc1ccc(O)cc1; Gln(3R-OH) = NC(=O)C[C@@H](O)[C@H](N)C(=O)O; Hyp = O=C(O)[C@@H]1C[C@@H](O)CN1

{"columns": ["compound", "MIC [µg/mL]"],
 "data": [
  ["CCCCCOc1ccc(-c2ccc(-c3ccc(C(=O)N[C@H]4C[C@@H](O)[C@@H](O)NC(=O)[C@@H]5[C@@H](O)[C@@H](C)CN5C(=O)[C@H]([C@@H](C)O)NC(=O)[C@H]([C@H](O)[C@@H](O)c5ccc(O)cc5)NC(=O)[C@@H]5C[C@@H](O)CN5C(=O)[C@H]([C@@H](C)O)NC4=O)cc3)cc2)cc1 [ANF, anidulafungin] ({pTerphenylCO(4''-OnC5H11)}-[Orn(4R-OH,5R-OH)]T[Hyp][hTyr(3S-OH,4S-OH)]T[Pro(3S-OH,4S-Me)]; lactam 1-C)", 0.008],
  ["CCCCCOc1ccc(-c2ccc(-c3ccc(C(=O)N[C@H]4C[C@@H](O)[C@@H](O)NC(=O)[C@@H]5[C@@H](O)[C@@H](C)CN5C(=O)[C@H]([C@@H](C)O)NC(=O)[C@H]([C@H](O)Cc5ccc(O)cc5)NC(=O)[C@@H]5C[C@@H](O)CN5C(=O)[C@H]([C@@H](C)O)NC4=O)cc3)cc2)cc1 [Compound 1, dehydroxy-ANF] ({pTerphenylCO(4''-OnC5H11)}-[Orn(4R-OH,5R-OH)]T[Hyp][hTyr(3R-OH)]T[Pro(3S-OH,4S-Me)]; lactam 1-C)", 0.004],
  ["CCCCCOc1ccc(-c2cc(-c3ccc(C(=O)N[C@H]4C[C@@H](O)[C@@H](O)NC(=O)[C@@H]5[C@@H](O)[C@@H](C)CN5C(=O)[C@H]([C@H](O)CC(N)=O)NC(=O)[C@H]([C@H](O)[C@@H](O)c5ccc(O)c(OS(=O)(=O)O)c5)NC(=O)[C@@H]5C[C@@H](O)CN5C(=O)[C@H]([C@@H](C)O)NC4=O)cc3)no2)cc1 [MCF, micafungin] (X1-[Orn(4R-OH,5R-OH)]T[Hyp][hTyr(3S-OH,4S-OH,3'-OSO3H)][Gln(3R-OH)][Pro(3S-OH,4S-Me)]; lactam 1-C)", 0.015],
  ["CC[C@H](C)C[C@H](C)CCCCCCCCC(=O)N[C@H]1C[C@@H](O)[C@@H](NCCN)NC(=O)[C@@H]2[C@@H](O)CCN2C(=O)[C@H]([C@H](O)CCN)NC(=O)[C@H]([C@H](O)[C@@H](O)c2ccc(O)cc2)NC(=O)[C@@H]2C[C@@H](O)CN2C(=O)[C@H]([C@@H](C)O)NC1=O", 0.031]
]}

---

Test system: C. albicans
Test: Minimum inhibitory concentration broth double-dilution assay
Assay type: cell-based, Candida albicans
Conditions: #1 C. albicans Sc5314; 24 h, 30 °C
*1 amine or outer side, *2 acyl side, *3 side chain or, on linkers, in order; H or OH if unused. Where a SMILES comes first, the peptide text is derived from it. Bridges are numbered along the chain shown (N, C = ends). [ ]: non-standard residue; d: D form. The star is where a group is joined. Orn(4R-OH,5R-OCH2CH2NMe3+) = C[N+](C)(C)CCO[C@@H](N[*:3])[C@H](O)C[C@H](N[*:1])C(=O)[*:2]; pTerphenylCO(4''-OnC5H11) = CCCCCOc1ccc(-c2ccc(-c3ccc(C(=O)*)cc3)cc2)cc1; Orn(4R-OH,5R-OH) = O=C([C@H](C[C@@H](O)[C@@H](O)N[*:3])N[*:1])[*:2]; hTyr(3S-OH,4S-OH) = N[C@H](C(=O)O)[C@H](O)[C@@H](O)c1ccc(O)cc1; Pro(3S-OH,4S-Me) = C[C@H]1CN[C@H](C(=O)O)[C@H]1O; hTyr(3R-OH) = N[C@H](C(=O)O)[C@H](O)Cc1ccc(O)cc1; Hyp = O=C(O)[C@@H]1C[C@@H](O)CN1

{"columns": ["molecule", "testTarget", "MIC"],
 "data": [
  ["CCCCCOc1ccc(-c2ccc(-c3ccc(C(=O)N[C@H]4C[C@@H](O)[C@@H](OCC[N+](C)(C)C)NC(=O)[C@@H]5[C@@H](O)[C@@H](C)CN5C(=O)[C@H]([C@@H](C)O)NC(=O)[C@H]([C@H](O)Cc5ccc(O)cc5)NC(=O)[C@@H]5C[C@@H](O)CN5C(=O)[C@H]([C@@H](C)O)NC4=O)cc3)cc2)cc1 [Compound 2, dehydroxy-RZF] ({pTerphenylCO(4''-OnC5H11)}-[Orn(4R-OH,5R-OCH2CH2NMe3+)]T[Hyp][hTyr(3R-OH)]T[Pro(3S-OH,4S-Me)]; lactam 1-C)", "C. albicans", "15 ng/mL"],
  ["CCCCCOc1ccc(-c2ccc(-c3ccc(C(=O)N[C@H]4C[C@@H](O)[C@@H](O)NC(=O)[C@@H]5[C@@H](O)[C@@H](C)CN5C(=O)[C@H]([C@@H](C)O)NC(=O)[C@H]([C@H](O)[C@@H](O)c5ccc(O)cc5)NC(=O)[C@@H]5C[C@@H](O)CN5C(=O)[C@H]([C@@H](C)O)NC4=O)cc3)cc2)cc1 [ANF, anidulafungin] ({pTerphenylCO(4''-OnC5H11)}-[Orn(4R-OH,5R-OH)]T[Hyp][hTyr(3S-OH,4S-OH)]T[Pro(3S-OH,4S-Me)]; lactam 1-C)", "C. albicans", "4 ng/mL"]
]}
